Sourced from the emibetuzumab library of Makowski et al. (2022)

B1: VH:VL chains; a variant is named by its letters at X, in order (parent)
chain 1: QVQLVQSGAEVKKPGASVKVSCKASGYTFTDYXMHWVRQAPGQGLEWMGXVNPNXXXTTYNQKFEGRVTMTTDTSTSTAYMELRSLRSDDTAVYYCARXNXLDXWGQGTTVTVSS
chain 2: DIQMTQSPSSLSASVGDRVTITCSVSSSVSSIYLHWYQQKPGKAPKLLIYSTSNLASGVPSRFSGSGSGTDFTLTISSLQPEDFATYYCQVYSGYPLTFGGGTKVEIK

- Variants of: B1
- testName: yeast display scFab, FACS + sequencing
- appliedConditions: with MET
This is one part of the list. The true hit rate is not given.
observationType: antigen binding call

* YKGRGDGY | binds
* YKEGGSGD | binds
* VETEGDVA | no binding
* VEGRGDGY | no binding
* SRGRGAWA | binds
* STGTGSGA | no binding
* SEARSYVV | no binding
* VTGTGAVY | no binding
* FRGTGSGD | no binding
* DAGGDDVY | no binding

Qu. Requested field: antigen binding call. Item: `SRGRGAWS`
Ans. binds

Qu. Requested field: antigen binding call. Item: `YKGRGVGY`
Ans. binds

Qu. Requested field: antigen binding call. Item: `SRGRGAVS`
Ans. binds
